Exercise: for every item that follows, state its recorded koff.
# subject.of.test: T1, hK1 (human tissue kallikrein 1), recombinant (human, UniProt P06870 25-262)
# T1 construct: Expressed in P. pastoris from KLK1 cDNA and purified; enzymatically active; also called KLK1; Recombinant (Pichia) Kallikrein
# experimental.details: SPR
Provide the reading as a plain figure in s⁻¹.

Req: Recorded koff for M0110-D11 (Fab, V domains shown) VH: EVQLLESGGGLVQPGGSLRLSCAASGFTFSHYLMYWVRQAPGKGLEWVSRIGPSGGWTKYADSVKGRFTISRDNSKNTLYLQMNSLRAEDTAVYYCARVGVWYGMDVWGQGTTVTVSS VL: AQSELTQPASVSGSPGQSITISCTGTSTDVGGYNYVSWYQKHPGKAPKLMIYDVSNRPSGVSNRFSGSKSGNTASLTISGLQAEDEADYYCSSYTNTITVVFGGGTKLTVLG , please?
Resp: 0.00134

Req: Follow-up entry: M0136-E10 (Fab, V domains shown) VH: EVQLLESGGGLVQPGGSLRLSCAASGFTFSPYNMAWVRQAPGKGLEWVSSIWPSGGRTRYADSVKGRFTISRDNSKNTLYLQMNSLRAEDTAVYYCAKGVRSSGLLERGRVYDAFDIWGQGTMVTVSS VL: DIQMTQSPGTLSLSPGERATLSCRASQSVTTFLAWYQRKPGQAPRLLIYGASSRAADIPDRFSGSGSGTDFTLTISRLEPEDLAVYYCQQYRFSPPTFGPGTTVDIRR
Resp: 0.00106

Req: Same again, this time with M0093-F09 (Fab, V domains shown, also called M093-F09) VH: EVQLLESGGGLVQPGGSLRLSCAASGFTFSDYRMWWVRQAPGKGLEWVSYIVPSGGQTSYADSVKGRFTISRDNSKNTLYLQMNSLRAEDTAVYYCARGSAYQRRTYSSGWYSASGRRGTAEYFQHWGQGTLVTVSS VL: AQSALTQPASVSGSPGQSITISCTGTSTDDVGGYNYVSWYQQHPGKAPKLMIYDVINRPSGVSNRFSGSKSGNTASLTISGLQAEDEADYYCSSYTSRGTRVFGTGTKVTVLG
Resp: 0.00279
